# Method notes: Biochemical counterscreen for C difficile toxins, absence of UDPG, inhibitor dose response (AID 720650)
# Condition parameters: series mostly up to 19.5 µM
The source made the active and inactive calls. No rule for the calls is given here.
Classes used: active, inactive

[[record]]
compound = "COc1cc(Cn2c(-c3ccc(O)c(OC)c3)nc3ccccc32)ccc1O"
class_label = "inactive"

[[record]]
compound = "COc1ccccc1Nc1nnc(SCc2cc(=O)n3ccsc3n2)s1"
class_label = "inactive"

[[record]]
compound = "Cc1ccc(NCCN(C)C)c2c(=O)c3cc(O)ccc3sc12"
class_label = "active"

[[record]]
compound = "O=C(C[C@H]1C[C@@H]2c3cc(NC(=O)c4ccc5c(c4)OCO5)ccc3O[C@@H]2[C@@H](CO)O1)NCc1cccc(F)c1"
class_label = "inactive"

[[record]]
compound = "C[C@H](CO)N1C[C@H](C)[C@@H](CN(C)C(=O)Nc2ccc(C(F)(F)F)cc2)Oc2ccc(NC(=O)C3CCCCC3)cc2C1=O"
class_label = "inactive"

[[record]]
compound = "CCNC(=O)C[C@@H]1CC[C@H]2[C@@H](COc3ccc(NC(C)=O)cc3C(=O)N2C)O1"
class_label = "inactive"

[[record]]
compound = "O=C(NCc1cc(C(F)(F)F)cc(C(F)(F)F)c1)C1CC(c2c(Cl)cccc2Cl)=NO1 (configuration not stated)"
class_label = "inactive"

[[record]]
compound = "COc1ccc(CC(=O)NNC(=S)NC(=O)c2cccnc2)cc1"
class_label = "inactive"

[[record]]
compound = "O=C(C[C@@H]1CC[C@H]2[C@@H](COC[C@@H](O)CN2C(=O)c2ccccn2)O1)NC1CCC1"
class_label = "inactive"

[[record]]
compound = "O=C(O)c1ccc(/C=N/NC(=S)NCCN2CCOCC2)cc1"
class_label = "inactive"

[[record]]
compound = "Cc1[nH]nc(-c2ccc(O)cc2O)c1Oc1ccccc1"
class_label = "active"

[[record]]
compound = "O=C(Nc1nnc(-c2ccco2)o1)C1CC1"
class_label = "inactive"

[[record]]
compound = "Cc1ccc(NNC(=O)c2ccno2)cc1C"
class_label = "active"

[[record]]
compound = "Cc1nc(-c2ccccn2)nc(SCC(=O)c2ccc(F)cc2)c1Cl"
class_label = "inactive"

[[record]]
compound = "CC(C)NC(=O)N1CC[C@@H]2[C@@H](CO)N(C)c3ccc(-c4ccc(F)cc4)cc3[C@@H]21"
class_label = "active"

[[record]]
compound = "CC[n+]1ccc(/C=C/c2ccc(N(C)C)cc2)c2ccccc21"
class_label = "active"

[[record]]
compound = "O=c1c2ccc(Cl)cc2[nH]c(=S)n1-c1cccnc1"
class_label = "inactive"

[[record]]
compound = "C=CCNS(=O)(=O)c1nc(C)c(Cl)c(C)c1C#N"
class_label = "inactive"

[[record]]
compound = "Oc1ccccc1-c1cnc2cccnn12"
class_label = "inactive"

[[record]]
compound = "COc1cc(/C=N/n2c(-c3ccccc3)n[nH]c2=S)ccc1O"
class_label = "inactive"

[[record]]
compound = "COc1ccc(NC(=O)c2cc(C)nc3ccccc23)c(OC)c1"
class_label = "inactive"

[[record]]
compound = "CCCNC(=O)N1CC[C@@H]2[C@@H](CO)N(C)c3ccc(-c4ccccc4)cc3[C@@H]21"
class_label = "active"


---

# Method notes: Biochemical counterscreen for C difficile toxins, absence of UDPG, inhibitor dose response (AID 720650)
# Condition parameters: series mostly up to 19.5 µM
Activity calls are given as the source filed them. The rule behind the calls is not given here.
Outcomes: True for active, False for inactive

[[record]]
compound = "CCN1CCN(c2oc(-c3ccccc3C)nc2S(=O)(=O)c2ccccc2)CC1"
class_label = "False"

[[record]]
compound = "CCS(=O)(=O)c1ccc2oc(Nc3ccc(C(C)(C)C)cc3)nc2c1"
class_label = "False"

[[record]]
compound = "COc1nc(C)cc(C)c1S(=O)(=O)c1ccc(Cl)cc1"
class_label = "False"

[[record]]
compound = "COc1cc(-c2noc(C)c2C#CC2(O)CCCCC2)cc(OC)c1OC"
class_label = "False"

[[record]]
compound = "c1ccc(OCCSc2nnc3sc4ccccc4n23)cc1"
class_label = "True"

[[record]]
compound = "Nc1ccc2c(c1)Nc1ccccc1CC2"
class_label = "True"

[[record]]
compound = "COc1cc(C(=O)Nc2scc(-c3ccccc3)c2C(=O)O)cc(OC)c1OC"
class_label = "True"

[[record]]
compound = "CCn1c(C)nc2cc(C(=O)N/N=C/c3ccc(OC)c(O)c3)ccc21"
class_label = "False"

[[record]]
compound = "CCOc1ccc(NC(=O)c2ccc(CC)s2)c([N+](=O)[O-])c1"
class_label = "False"

[[record]]
compound = "Oc1ccc(Cc2ccccc2Cl)c(O)c1"
class_label = "False"

[[record]]
compound = "CC1C(=O)C(C)C(c2ccc([N+](=O)[O-])cc2)NC1c1ccc([N+](=O)[O-])cc1 (stereo unspecified)"
class_label = "False"


---

# Method notes: Biochemical counterscreen for C difficile toxins, absence of UDPG, inhibitor dose response (AID 720650)
# Condition parameters: series mostly up to 19.5 µM
The source made the active and inactive calls. No rule for the calls is given here.
Outcome codes: true (active), false (inactive)

[[record]]
compound = "Cc1cccc(/C=C/c2onc(C)c2S(=O)(=O)N2CCC(C(=O)N3CCCCCC3)CC2)c1"
class_label = "false"

[[record]]
compound = "Cc1ccc(C)c2nc(Cl)c(C3NC(=O)c4ccccc4N3)cc12 (stereo not given)"
class_label = "false"

[[record]]
compound = "O=[N+]([O-])c1cc(Br)ccc1NS(=O)(=O)c1ccccc1"
class_label = "false"

[[record]]
compound = "O=C(NNc1ccc(-c2csnn2)cc1)c1ccccc1C(F)(F)F"
class_label = "true"

[[record]]
compound = "NC(=O)c1ccc(NC(=O)CSc2nnc(C3CC3)n2C2CC2)cc1"
class_label = "false"


---

# Method notes: Biochemical counterscreen for C difficile toxins, absence of UDPG, inhibitor dose response (AID 720650)
# Condition parameters: series mostly up to 19.5 µM
The source made the active and inactive calls. How the calls were made is not given here.
Labels: yes = active, no = inactive

[[record]]
compound = "O=C(O)C1CCC(CN(Cc2cccc(Br)c2)C(=S)Nc2ccccc2F)CC1 (stereo not given)"
class_label = "no"

[[record]]
compound = "Cc1ccc(S(=O)(=O)/N=C(/Nc2cccc(O)c2)c2ccccc2)cc1"
class_label = "no"

[[record]]
compound = "COCc1c(Br)c(C)nc(OCC(=O)N/N=C/c2ccc(C)o2)c1C#N"
class_label = "no"

[[record]]
compound = "CCOc1ccc(C(CC(=O)O)NC(=O)C23CC4CC(CC(C4)C2)C3)cc1OC (stereo not given)"
class_label = "no"

[[record]]
compound = "Clc1ccc(/C=C/c2ncc[nH]2)c(Cl)c1"
class_label = "no"

[[record]]
compound = "CC(=O)N1CC[C@@H]2[C@@H](CO)N(C)c3ccc(-c4ccccc4)cc3[C@@H]21"
class_label = "yes"

[[record]]
compound = "O=C(C[C@@H]1CC[C@H]2[C@@H](COC[C@@H](O)CN2Cc2ccc(Oc3ccccc3)cc2)O1)Nc1nccs1"
class_label = "no"

[[record]]
compound = "Cn1cc(C(CO)Cc2ccccc2)c2ccccc21 (stereo not given)"
class_label = "no"

[[record]]
compound = "COc1ccc(NC(=O)Cn2cnc3sc(C)c(S(=O)(=O)N4CCOCC4)c3c2=O)c(OC)c1"
class_label = "no"

[[record]]
compound = "CC(C)(C)OCC(O)CN1CCN(C(=O)c2ccccc2)CC1 (stereo not given)"
class_label = "no"


---

# Method notes: Biochemical counterscreen for C difficile toxins, absence of UDPG, inhibitor dose response (AID 720650)
# Condition parameters: series mostly up to 19.5 µM
Calls of active or inactive are those of the source. No rule for the calls is given here.
Classes used: active, inactive

[[record]]
compound = "O=C(C[C@H]1CC[C@@H]2[C@H](COC[C@@H](O)CN2C(=O)c2ccccn2)O1)NC1CCC1"
class_label = "inactive"

[[record]]
compound = "CN1C(=O)CSc2ccc(NC(=O)N3CCc4ccccc43)cc21"
class_label = "active"

[[record]]
compound = "CCCNC(=O)Nc1ccc2c(c1)C(=O)N(C)[C@H]1CC[C@H](CC(=O)NC3CCC3)O[C@@H]1CO2"
class_label = "inactive"

[[record]]
compound = "COc1cc(/C=N/NC2=NCCCCC2)ccc1O"
class_label = "inactive"

[[record]]
compound = "Oc1ccc(-c2cn3ccccc3n2)cc1"
class_label = "active"

[[record]]
compound = "CCOC(=O)c1ccc2ncc(-c3ccccc3)nc2c1"
class_label = "inactive"

[[record]]
compound = "CNc1nc(C23CC4CC(CC(C4)C2)C3)cs1"
class_label = "inactive"

[[record]]
compound = "C[C@@H]1CN([C@@H](C)CO)S(=O)(=O)c2ccc(C#Cc3ccncc3)cc2O[C@H]1CN(C)C(=O)C1CC1"
class_label = "inactive"

[[record]]
compound = "O=C(Nc1ccc(O)cc1)/C(=C\\c1cccs1)NC(=O)c1ccccc1"
class_label = "active"

[[record]]
compound = "N#C/C(=C\\c1ccc(N2CCOCC2)o1)C(=O)Nc1ccc(O)cc1"
class_label = "inactive"

[[record]]
compound = "COC(=O)C1=C(c2ccc(OCc3ccccc3)cc2)C[C@@H]2CC[C@H]1N2C(=O)NCCCc1ccccc1"
class_label = "inactive"

[[record]]
compound = "CC(C(=O)OCC(=O)c1c(N)n(C)c(=O)n(C)c1=O)N1C(=O)c2ccccc2C1=O (stereo unspecified)"
class_label = "inactive"

[[record]]
compound = "CN(c1ccc(O)cc1)c1nc(-c2cccnc2)cs1"
class_label = "inactive"

[[record]]
compound = "Cn1c(=O)c2c(nc(N3CCOCC3)n2CCSc2ncccn2)n(C)c1=O"
class_label = "inactive"

[[record]]
compound = "COc1ccc(CC(=O)C2C(=O)N(C)c3ccccc32)cc1OC (stereo unspecified)"
class_label = "inactive"

[[record]]
compound = "CNC(=O)C[C@H]1CC[C@@H]2[C@@H](COc3ccc(NC(=O)c4ccc(OC)cc4)cc3C(=O)N2C)O1"
class_label = "inactive"

[[record]]
compound = "O=c1[nH]nc(-c2cc(-c3ccccc3)nc3ccccc23)o1"
class_label = "inactive"

[[record]]
compound = "C=CCn1c(C)cc(C(=O)COC(=O)CCc2cc(OC)c(OC)c(OC)c2)c1C"
class_label = "inactive"

[[record]]
compound = "O=C(C[C@@H]1C[C@@H]2c3cc(NC(=O)c4ccc5c(c4)OCO5)ccc3O[C@@H]2[C@@H](CO)O1)NCc1cccc(F)c1"
class_label = "inactive"

[[record]]
compound = "O=C(NC(=S)NNC(=O)c1ccccc1F)c1cccnc1"
class_label = "inactive"

[[record]]
compound = "Fc1ccc(-c2nc3ccc(Br)cn3c2Cc2ccccc2)cc1"
class_label = "inactive"

